# Species: Homo sapiens
# protocol-summary: Compound was tested for human IgG protein binding at 100 ug/mL

- molecule: "CC(C)CCCC(C)C1CCC2C3CC=C4CC(OCCCCCCN=C=S)CCC4(C)C3CCC12C (stereo unspecified)"
  Binding: "55.9%"
- molecule: "CC(C)CCCC(C)C1CCC2C3CC=C4CC(OCCCCCCO)CCC4(C)C3CCC12C (stereo unspecified)"
  Binding: "58.7%"
- molecule: "CC(C)CCCC(C)C1CCC2C3CC=C4CC(OCCCCCC(=O)ON5C(=O)CCC5=O)CCC4(C)C3CCC12C (stereo unspecified)"
  Binding: "77.5%"
- molecule: "CC(C)CCCC(C)C1CCC2C3CC=C4CC(OCCCCCCNC(=O)c5cccc(N6C(=O)C=CC6=O)c5)CCC4(C)C3CCC12C (stereo unspecified)"
  Binding: "61.1%"
- molecule: "CC(C)CCCC(C)C1CCC2C3CC=C4CC(OCCCCCCC(=O)ON5C(=O)CCC5=O)CCC4(C)C3CCC12C (stereo unspecified)"
  Binding: "69.5%"
- molecule: "CC(C)CCCC(C)C1CCC2C3CC=C4CC(OCCCCCCSCc5ccc(C(=O)ON6C(=O)CCC6=O)cc5)CCC4(C)C3CCC12C (stereo unspecified)"
  Binding: "60.4%"

----------
# Species: Homo sapiens
# protocol-summary: Compound was tested for human IgG protein binding at 1 mg/mL
endpoint-label: Binding (%)

- compound: "CC(C)CCCC(C)C1CCC2C3CC=C4CC(OCCCCCCNC(=O)c5cccc(N6C(=O)C=CC6=O)c5)CCC4(C)C3CCC12C (stereo unspecified)"
  result-units: "%"
  data-value: 39.5
- compound: "CC(C)CCCC(C)C1CCC2C3CC=C4CC(OCCCCCCC(=O)ON5C(=O)CCC5=O)CCC4(C)C3CCC12C (stereo unspecified)"
  result-units: "%"
  data-value: 46
- compound: "CC(C)CCCC(C)C1CCC2C3CC=C4CC(OCCCCCCN=C=S)CCC4(C)C3CCC12C (stereo unspecified)"
  result-units: "%"
  data-value: 31.9
- compound: "CC(C)CCCC(C)C1CCC2C3CC=C4CC(OCCCCCC(=O)ON5C(=O)CCC5=O)CCC4(C)C3CCC12C (stereo unspecified)"
  result-units: "%"
  data-value: 40.3
- compound: "CC(C)CCCC(C)C1CCC2C3CC=C4CC(OCCCCCCSCc5ccc(C(=O)ON6C(=O)CCC6=O)cc5)CCC4(C)C3CCC12C (stereo unspecified)"
  result-units: "%"
  data-value: 43.3
- compound: "CC(C)CCCC(C)C1CCC2C3CC=C4CC(OCCCCCCO)CCC4(C)C3CCC12C (stereo unspecified)"
  result-units: "%"
  data-value: 31.9
